Catalogue of compounds with associated IC50
# target-or-test-system: recombinant human integrin αVβ6 (Homo sapiens (Human), UniProt P06756+P18564)
# Sequence (P06756 31-992): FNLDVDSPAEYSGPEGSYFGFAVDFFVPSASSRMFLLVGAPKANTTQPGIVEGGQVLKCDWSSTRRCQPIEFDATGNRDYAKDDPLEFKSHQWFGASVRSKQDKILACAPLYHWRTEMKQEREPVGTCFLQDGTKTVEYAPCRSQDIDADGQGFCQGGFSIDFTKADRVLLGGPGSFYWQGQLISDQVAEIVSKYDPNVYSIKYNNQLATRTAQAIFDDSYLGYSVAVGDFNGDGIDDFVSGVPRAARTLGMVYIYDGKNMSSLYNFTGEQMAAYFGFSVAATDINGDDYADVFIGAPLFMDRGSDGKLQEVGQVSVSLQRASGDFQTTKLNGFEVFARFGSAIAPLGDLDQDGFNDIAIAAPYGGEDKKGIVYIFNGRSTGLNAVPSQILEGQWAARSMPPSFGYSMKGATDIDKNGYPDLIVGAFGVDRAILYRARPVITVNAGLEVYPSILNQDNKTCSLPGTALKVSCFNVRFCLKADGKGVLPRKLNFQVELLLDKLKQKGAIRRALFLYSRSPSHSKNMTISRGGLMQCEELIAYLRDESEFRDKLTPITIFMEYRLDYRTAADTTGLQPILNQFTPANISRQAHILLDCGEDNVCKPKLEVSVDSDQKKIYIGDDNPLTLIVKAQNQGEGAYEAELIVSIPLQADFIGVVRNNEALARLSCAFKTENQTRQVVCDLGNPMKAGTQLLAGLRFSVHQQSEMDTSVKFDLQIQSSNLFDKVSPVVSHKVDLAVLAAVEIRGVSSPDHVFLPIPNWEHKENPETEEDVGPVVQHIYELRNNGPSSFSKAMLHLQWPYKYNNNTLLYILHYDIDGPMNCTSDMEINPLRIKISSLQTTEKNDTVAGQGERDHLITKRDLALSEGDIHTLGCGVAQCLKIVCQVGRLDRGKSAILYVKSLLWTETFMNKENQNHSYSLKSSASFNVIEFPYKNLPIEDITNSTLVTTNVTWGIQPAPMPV
# Sequence (P18564 22-707): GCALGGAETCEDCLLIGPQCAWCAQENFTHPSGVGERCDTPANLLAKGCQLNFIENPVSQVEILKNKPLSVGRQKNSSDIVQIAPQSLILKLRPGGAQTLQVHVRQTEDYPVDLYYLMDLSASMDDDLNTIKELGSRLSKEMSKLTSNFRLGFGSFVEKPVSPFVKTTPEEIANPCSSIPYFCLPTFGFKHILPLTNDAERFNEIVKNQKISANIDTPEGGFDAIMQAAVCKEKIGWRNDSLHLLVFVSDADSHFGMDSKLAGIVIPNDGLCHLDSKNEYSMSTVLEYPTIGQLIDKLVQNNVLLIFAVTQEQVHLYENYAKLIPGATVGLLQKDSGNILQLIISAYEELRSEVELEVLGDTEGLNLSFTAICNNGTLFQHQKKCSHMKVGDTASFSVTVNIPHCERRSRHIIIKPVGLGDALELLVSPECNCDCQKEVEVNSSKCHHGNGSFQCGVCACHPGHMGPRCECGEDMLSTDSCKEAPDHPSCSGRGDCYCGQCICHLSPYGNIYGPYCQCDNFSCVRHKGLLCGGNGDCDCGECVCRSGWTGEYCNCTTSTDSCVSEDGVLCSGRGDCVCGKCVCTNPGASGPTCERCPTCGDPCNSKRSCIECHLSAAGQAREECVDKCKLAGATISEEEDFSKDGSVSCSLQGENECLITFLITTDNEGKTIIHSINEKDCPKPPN
# protocol-notes: Solid phase integrin αVβ6 binding assay
# test-context: inhibition of recombinant TGFβ1 LAP binding to coated integrin, IC50 presented in four ranges, read-out: αvβ6 Inhibition IC50 (nM) - range
measured-endpoint: IC50

{"columns": ["compound", "recorded-measurement"],
 "data": [
  ["COCCN(CCCCc1ccc2c(n1)NCCC2)CC[C@H](Nc1cc(C(F)(F)F)nc(C)n1)C(=O)O", "< 50 nM"],
  ["O=C(O)[C@H](CCN(CCCCc1ccc2c(n1)NCCC2)CC(F)F)Nc1cc(-c2ccccc2)ncn1", "> 1000 nM"],
  ["CS(=O)(=O)CCN(CCCCc1ccc2c(n1)NCCC2)CC[C@H](Nc1ncc(C(F)(F)F)cn1)C(=O)O", "> 1000 nM"],
  ["Cn1ncc2c(N[C@@H](CCN(CCCCc3ccc4c(n3)NCCC4)CCC(F)F)C(=O)O)ncnc21", "50 to 250 nM"],
  ["O=C(O)[C@H](CCN(CCCCc1ccc2c(n1)NCCC2)CCOc1ccccc1)Nc1ccnc(C(F)(F)F)n1", "< 50 nM"],
  ["COCCN(CCCCc1ccc2c(n1)NCCC2)CC[C@H](Nc1ncnc2ncccc12)C(=O)O", "< 50 nM"],
  ["Cc1nc(N[C@@H](CCN(CCCCc2ccc3c(n2)NCCC3)CCOC2CC2(F)F)C(=O)O)c2ccc(F)cc2n1 (stereo partly drawn)", "< 50 nM"],
  ["COCCN(CCCCc1ccc2c(n1)NCCC2)CC[C@H](Nc1ccnc2ccccc12)C(=O)O", "> 1000 nM"],
  ["O=C(O)[C@H](CCN(CCCCc1ccc2c(n1)NCCC2)CC1(F)COC1)Nc1ncnc2ccccc12", "50 to 250 nM"],
  ["O=C(O)[C@H](CCN(CCCCc1ccc2c(n1)NCCC2)CC(F)F)Nc1ncc(Br)cn1", "> 1000 nM"],
  ["COC[C@@H](F)CN(CCCCc1ccc2c(n1)NCCC2)CC[C@H](Nc1ncnc2ccccc12)C(=O)O", "< 50 nM"],
  ["Cc1ccc(OCCN(CCCCc2ccc3c(n2)NCCC3)CC[C@H](Nc2ncnc3cccnc23)C(=O)O)cn1", "< 50 nM"],
  ["CS(=O)(=O)CCN(CCCCc1ccc2c(n1)NCCC2)CC[C@H](Nc1cc(-n2cccn2)ncn1)C(=O)O", "> 1000 nM"],
  ["CO[C@H](C)CN(CCCCc1ccc2c(n1)NCCC2)CC[C@H](Nc1ncc(C(F)(F)F)cn1)C(=O)O", "< 50 nM"],
  ["O=C(O)[C@H](CCN(CCCCc1ccc2c(n1)NCCC2)CC(F)F)Nc1ccncn1", "> 1000 nM"]
]}

* * *

# target-or-test-system: recombinant human integrin αVβ6 (Homo sapiens (Human), UniProt P06756+P18564)
# protocol-notes: Solid phase integrin αVβ6 binding assay
# test-context: inhibition of recombinant TGFβ1 LAP binding to coated integrin, IC50 presented in four ranges, read-out: αvβ6 Inhibition IC50 (nM) - range
measured-endpoint: IC50

{"columns": ["molecule", "target-or-test-system", "recorded-measurement"],
 "data": [
  ["CO[C@H](C)CN(CCCCc1ccc2c(n1)NCCC2)CC[C@H](Nc1ncnc2cn[nH]c12)C(=O)O", "recombinant human integrin αVβ6 (Homo sapiens (Human), UniProt P06756+P18564)", "< 50 nM"],
  ["O=C(O)[C@H](CCN(CCCF)CCCCc1ccc2c(n1)NCCC2)Nc1ncc(C(F)(F)F)cn1", "recombinant human integrin αVβ6 (Homo sapiens (Human), UniProt P06756+P18564)", "< 50 nM"],
  ["COCCN(CCCCc1ccc2c(n1)NCCC2)CC[C@H](Nc1ncnc2cc(F)ccc12)C(=O)O", "recombinant human integrin αVβ6 (Homo sapiens (Human), UniProt P06756+P18564)", "< 50 nM"],
  ["COCCN(CCCCc1ccc2c(n1)NCCC2)CC[C@H](Nc1ncnc2ccc(F)cc12)C(=O)O", "recombinant human integrin αVβ6 (Homo sapiens (Human), UniProt P06756+P18564)", "< 50 nM"],
  ["O=C(O)[C@H](CCN(CCCCc1ccc2c(n1)NCCC2)CCOc1ccccc1)Nc1ncc(C(F)(F)F)cn1", "recombinant human integrin αVβ6 (Homo sapiens (Human), UniProt P06756+P18564)", "< 50 nM"],
  ["O=C(O)[C@H](CCN(CCCCc1ccc2c(n1)NCCC2)C1CC1)Nc1ncnc2[nH]ncc12", "recombinant human integrin αVβ6 (Homo sapiens (Human), UniProt P06756+P18564)", "50 to 250 nM"],
  ["O=C(O)[C@H](CCN(CCCCc1ccc2c(n1)NCCC2)CCC(F)F)Nc1ncc(C(F)(F)F)cn1", "recombinant human integrin αVβ6 (Homo sapiens (Human), UniProt P06756+P18564)", "50 to 250 nM"],
  ["O=C(O)[C@H](CCN(CCCCc1ccc2c(n1)NCCC2)C1CC(F)(F)C1)Nc1ncnc2ccccc12", "recombinant human integrin αVβ6 (Homo sapiens (Human), UniProt P06756+P18564)", "> 1000 nM"],
  ["O=C(O)[C@H](CCN(CCCCc1ccc2c(n1)NCCC2)C1CC1)Nc1ncnc2ccccc12", "recombinant human integrin αVβ6 (Homo sapiens (Human), UniProt P06756+P18564)", "50 to 250 nM"],
  ["O=C(O)[C@H](CCN(CCCCc1ccc2c(n1)NCCC2)C1CC1)Nc1ccnc(C(F)(F)F)n1", "recombinant human integrin αVβ6 (Homo sapiens (Human), UniProt P06756+P18564)", "50 to 250 nM"],
  ["O=C(O)[C@H](CCN(CCCCc1ccc2c(n1)NCCC2)CCOc1cncc(F)c1)Nc1ncnc2ccccc12", "recombinant human integrin αVβ6 (Homo sapiens (Human), UniProt P06756+P18564)", "< 50 nM"],
  ["O=C(O)[C@H](CCN(CCCCc1ccc2c(n1)NCCC2)CCOc1ccccc1)Nc1nc(-c2cccnc2)nc2ccccc12", "recombinant human integrin αVβ6 (Homo sapiens (Human), UniProt P06756+P18564)", "< 50 nM"],
  ["N#Cc1cnc(N[C@@H](CCN(CCCCc2ccc3c(n2)NCCC3)CCOc2ccccc2)C(=O)O)nc1", "recombinant human integrin αVβ6 (Homo sapiens (Human), UniProt P06756+P18564)", "< 50 nM"],
  ["COc1ccc2c(N[C@@H](CCN(CCCF)CCCCc3ccc4c(n3)NCCC4)C(=O)O)ncnc2c1", "recombinant human integrin αVβ6 (Homo sapiens (Human), UniProt P06756+P18564)", "< 50 nM"],
  ["Cn1ncc2c(N[C@@H](CCN(CCCCc3ccc4c(n3)NCCC4)CC(F)F)C(=O)O)ncnc21", "recombinant human integrin αVβ6 (Homo sapiens (Human), UniProt P06756+P18564)", "> 1000 nM"]
]}
